Tested on: MCF10A
protocolNotes: percent viability (nuclei count relative to siNT); higher = more viable cells
conditionParameters: 20 nM; 72 h
Recorded percent viability split into classes low class = under 40%, middle class = from 40% up to 70%, high class = 70% and over

sequenceContent	subjectOfTest	category
AAACUAAUCUCUACACUGCUGC [hsa-miR-3129-3p]	MCF10A	high class
UUUGCAGUAACAGGUGUGAGCA [hsa-miR-6516-5p]	MCF10A	low class
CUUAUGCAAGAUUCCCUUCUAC [hsa-miR-491-3p]	MCF10A	low class
CGGAUGAGCAAAGAAAGUGGUU [hsa-miR-1255b-5p]	MCF10A	middle class
AAAGUGCAUCCUUUUAGAGGUU [hsa-miR-519b-3p]	MCF10A	high class
CCUGCAGAGAGGAAGCCCUUC [hsa-miR-3158-5p]	MCF10A	low class
UUCAUUUGGUAUAAACCGCGAUU [hsa-miR-579]	MCF10A	low class
GACCGAGAGGGCCUCGGCUGU [hsa-miR-4523]	MCF10A	middle class
AUCAUGUAUGAUACUGCAAACA [hsa-miR-6516-3p]	MCF10A	middle class

---

Tested on: MCF10A
protocolNotes: one-nucleolus phenotype percent effect (relative to siNT 0% and siNOL11 100%); higher = more cells with one nucleolus (ribosome biogenesis inhibition)
conditionParameters: 20 nM; 72 h
// one-nucleolus phenotype percent effect lookup, one value per entry

sequenceContent	unitInfo	one-nucleolus phenotype percent effect
GGUAUCCGUUUGGGGAUGGU [hsa-miR-3713]	%	11.4
AUGGCCAGAGCUCACACAGAGG [hsa-miR-4435]	%	-11.4
CCUCACCAUCCCUUCUGCCUGC [hsa-miR-6511a-3p]	%	-11.2
UUCCUUCUGUUGUCUGUGCAG [hsa-miR-6868-3p]	%	-3.76
UGGGAAAGAGAAAGAACAAGUA [hsa-miR-6739-5p]	%	-11.2
ACGGCCCAGGCGGCAUUGGUG [hsa-miR-6075]	%	-5.35
CAAAACCGCGAUUACUCUUGCA [hsa-miR-548ay-3p]	%	52
UAGGACUGUGCUUGGCACAUAG [hsa-miR-3169]	%	1.07
CUUGAGUCGUGCCUUUCUGAAUG [hsa-miR-8081]	%	14
CUUCUCUUCUCUCCUUCCCAG [hsa-miR-6809-3p]	%	17.9
GAGCUUGGAUGAGCUGGGCUGA [hsa-miR-4538]	%	14.4
AGGGGCUGGCUUUCCUCUGGUC [hsa-miR-185-3p]	%	49.9

---

Test system: MCF10A
protocolNotes: 5+ nucleoli phenotype percent effect (relative to siNT 0% and siKIF11 100%); higher = more cells with five or more nucleoli
conditionParameters: 20 nM; 72 h
Recorded 5+ nucleoli phenotype percent effect split into classes LOW: < -20%; MEDIUM: ≥ -20% and < 20%; HIGH: ≥ 20%

sequenceContent	category
ACCUGGACCCAGCGUAGACAAAG [hsa-miR-3690]	HIGH
UCCUGCGCGUCCCAGAUGCCC [hsa-miR-1539]	MEDIUM
UAACGCAUAAUAUGGACAUGU [hsa-miR-3912]	HIGH
UCCUGCCUUCCUCUGCACCAG [hsa-miR-6747-3p]	LOW
UAAAACUGCAGUUAUUUUUGC [hsa-miR-548ar-3p]	HIGH
UAAAAUUUGCAUCCAGGA [hsa-miR-4282]	HIGH
CUUAGAUUAGAGGAUAUUGUU [hsa-miR-8061]	HIGH
GGCUCAAUCUCUGGUCCUGCAGCC [hsa-miR-7158-5p]	HIGH
CUAUACAGUCUACUGUCUUUCC [hsa-let-7f-2-3p]	MEDIUM
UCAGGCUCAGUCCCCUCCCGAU [hsa-miR-484]	HIGH
CCAGACUGUGGCUGACCAGAGG [hsa-miR-4494]	HIGH
UGGGGGGACAGAUGGAGAGGACA [hsa-miR-6887-5p]	MEDIUM
CAAGGCCAAAGGAAGAGAACAG [hsa-miR-4753-5p]	MEDIUM
AGGGUGGGGCUGGAGGUGGGGCU [hsa-miR-6756-5p]	MEDIUM
GCAGUAGUGUAGAGAUUGGUUU [hsa-miR-3129-5p]	MEDIUM
UGCCCAUGCCAUACUUUUGCCUCA [hsa-miR-4641]	MEDIUM
CCGGGGCAGAUUGGUGUAGGGUG [hsa-miR-5090]	HIGH
CCUGUGGGCCACCUAGUCACCAA [hsa-miR-134-3p]	MEDIUM
AGGGACCUGAGUGUCUAAG [hsa-miR-3649]	MEDIUM
UUUCUCUCUCCACUUCCUCAG [hsa-miR-6833-3p]	HIGH
GGUUGGGCAGUGAGGAGGGUGUGA [hsa-miR-3147]	HIGH
UGCUGAGGUCCGGGCUGUGCC [hsa-miR-7160-5p]	LOW
UCUGCCAUCCUCCCUCCCCUAC [hsa-miR-4769-3p]	HIGH
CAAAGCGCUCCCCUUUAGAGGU [hsa-miR-518b]	LOW
AAAGUGCAUCCUUUUAGAGGUU [hsa-miR-519b-3p]	HIGH
UCCCUCCUUCUGUCCCCACAG [hsa-miR-4667-3p]	MEDIUM
GGCCUUGUUCCUGUCCCCA [hsa-miR-4312]	LOW
UGCUGUAUUGUCAGGUAGUGA [hsa-miR-4999-5p]	MEDIUM
GGCGACAAAACGAGACCCUGUC [hsa-miR-1273c]	LOW
AGGCUGGAGUGAGCGGAG [hsa-miR-4430]	LOW
CACCCAGAUCUGCGGCCUAAU [hsa-miR-1295b-5p]	LOW
ACCCGUCCCGUUCGUCCCCGGA [hsa-miR-1247-5p]	MEDIUM
UCUCACCCCAACUCUGCCCCAG [hsa-miR-6784-3p]	HIGH
UGACGCCCCUUCUGAUUCUGCCU [hsa-miR-6786-3p]	MEDIUM
CCUGCGUGUUUUCUGUCCAA [hsa-miR-4520b-5p]	MEDIUM
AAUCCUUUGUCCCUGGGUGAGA [hsa-miR-501-5p]	LOW
UCUGUGCUUCACCCCUACCCAG [hsa-miR-6737-3p]	MEDIUM
AAAAACCACAAUUACUUUU [hsa-miR-548ap-3p]	LOW
UUGCCAUACAUAGACUUUAUU [hsa-miR-5590-5p]	LOW
UGAGGGAGUAGGAUGUAUGGUU [hsa-miR-4510]	MEDIUM
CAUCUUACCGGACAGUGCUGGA [hsa-miR-200a-5p]	LOW
UCCCUUGUCUCCUUUCCCUAG [hsa-miR-6780b-3p]	HIGH
AGAAUUGUGGCUGGACAUCUGU [hsa-miR-219-2-3p]	LOW
UAAGGCACGCGGUGAAUGCC [hsa-miR-124-3p]	MEDIUM
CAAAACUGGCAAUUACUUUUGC [hsa-miR-548a-3p]	HIGH
ACCGUCUCUUCUGUUCCCCAG [hsa-miR-6827-3p]	MEDIUM
AAAAACCACAAUUACUUUUGCACCA [hsa-miR-548aa]	LOW
CUCCCACAUGCAGGGUUUGCA [hsa-miR-188-3p]	HIGH

---

System: MCF10A
protocolNotes: 5+ nucleoli phenotype percent effect (relative to siNT 0% and siKIF11 100%); higher = more cells with five or more nucleoli
conditionParameters: 20 nM; 72 h
Decide by 5+ nucleoli phenotype percent effect: equal to or exceeding 30% means Fulfilled, less means Not fulfilled.

sequenceContent	category
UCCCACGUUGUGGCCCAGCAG [hsa-miR-662]	Fulfilled
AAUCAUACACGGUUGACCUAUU [hsa-miR-154-3p]	Not fulfilled
CUUGGGAGCCCUGUUAGACUC [hsa-miR-887-5p]	Fulfilled
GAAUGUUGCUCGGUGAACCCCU [hsa-miR-409-3p]	Not fulfilled
UUGGGUUUUCUCUUCAAUCCAG [hsa-miR-6839-3p]	Not fulfilled
UCCGUACAAACUCUGCUGUG [hsa-miR-3678-5p]	Not fulfilled
AUGUAGGGCUAAAAGCCAUGGG [hsa-miR-135b-3p]	Not fulfilled
AGCAUACACCUGUAGUCCUAGA [hsa-miR-5689]	Not fulfilled
AGCUCCCUGAAUCCCUGUCCCAG [hsa-miR-7106-3p]	Fulfilled
GCGCUGACCCGCCUUCUCCGCA [hsa-miR-6825-3p]	Fulfilled
UUUGGUCCCCUUCAACCAGCUG [hsa-miR-133a]	Not fulfilled

---

System: MCF10A
protocolNotes: 5+ nucleoli phenotype percent effect, hitpick validation (relative to siNT 0% and siKIF11 100%); higher = more cells with five or more nucleoli
conditionParameters: 20 nM; 72 h
// 5+ nucleoli phenotype percent effect lookup, one value per entry
valueType: 5+ nucleoli phenotype percent effect (%)

sequenceContent	unitInfo	endpointResult
UCUCUGGGCCUGUGUCUUAGGC [hsa-miR-330-5p]	%	1.29
ACUGGGCUUGGAGUCAGAAG [hsa-miR-378g]	%	-9.08
AAGGAGCUUACAAUCUAGCUGGG [hsa-miR-708-5p]	%	1.8
UGGCAAGGAAAGAAGAGGAUCA [hsa-miR-6809-5p]	%	-2.51
GAGCAGGCGAGGCUGGGCUGAA [hsa-miR-4690-5p]	%	-12.8
UGUGUGGAUCCUGGAGGAGGCA [hsa-miR-3911]	%	-10.6
UGGUCUGCAAAGAGAUGACUGU [hsa-miR-4527]	%	-1.79
UCUGCAGGGUUUGCUUUGAG [hsa-miR-1205]	%	-13.7
UGAAUGGUAAAGCGAUGUCACA [hsa-miR-4790-3p]	%	-2.28
AAAAGGCGGGAGAAGCCCCA [hsa-miR-4484]	%	-14.7
CACCAGGGCAGAGCAGGGCUGA [hsa-miR-6753-5p]	%	-17.4
CCCCACCUCCUCUCUCCUCAG [hsa-miR-1224-3p]	%	28.1
GGCUGGGUGCUCUUGUGCAGU [hsa-miR-5589-5p]	%	21.5
UAUGGCACUGGUAGAAUUCACU [hsa-miR-183-5p]	%	-0.696
UUCUCCCACUACCAGGCUCCCA [hsa-miR-4713-5p]	%	43
AAAGGCAUAAAACCAAGACA [hsa-miR-3910]	%	-8.76
GGCCAGCCACCAGGAGGGCUG [hsa-miR-3194-5p]	%	4.28
CGCGCCGGGCCCGGGUU [hsa-miR-3195]	%	-15.6
CUAGGGGGUUUGCCCUUG [hsa-miR-4278]	%	-14.3
CUCUUGAGGGAAGCACUUUCUGU [hsa-miR-526b-5p]	%	-6.22
AGGCGGAGACUUGGGCAAUUG [hsa-miR-25-5p]	%	-9.31
AGAAAGGGUGGCAAUACCUCUU [hsa-miR-5681a]	%	-15.4
AAAGGAGGAAAUAGGCAGGCCA [hsa-miR-3173-3p]	%	-0.0263
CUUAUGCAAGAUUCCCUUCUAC [hsa-miR-491-3p]	%	-10.1
